molecular target: CYP2D6 (Homo sapiens, UniProt P10635); test: Inhibition of human liver microsome CYP2D6 using bufuralol as substrate assessed as residual activity at 1 uM; type: ADME; conditions: human liver microsomes, probe bufuralol, read-out: Activity
Sequence (P10635 whole entry): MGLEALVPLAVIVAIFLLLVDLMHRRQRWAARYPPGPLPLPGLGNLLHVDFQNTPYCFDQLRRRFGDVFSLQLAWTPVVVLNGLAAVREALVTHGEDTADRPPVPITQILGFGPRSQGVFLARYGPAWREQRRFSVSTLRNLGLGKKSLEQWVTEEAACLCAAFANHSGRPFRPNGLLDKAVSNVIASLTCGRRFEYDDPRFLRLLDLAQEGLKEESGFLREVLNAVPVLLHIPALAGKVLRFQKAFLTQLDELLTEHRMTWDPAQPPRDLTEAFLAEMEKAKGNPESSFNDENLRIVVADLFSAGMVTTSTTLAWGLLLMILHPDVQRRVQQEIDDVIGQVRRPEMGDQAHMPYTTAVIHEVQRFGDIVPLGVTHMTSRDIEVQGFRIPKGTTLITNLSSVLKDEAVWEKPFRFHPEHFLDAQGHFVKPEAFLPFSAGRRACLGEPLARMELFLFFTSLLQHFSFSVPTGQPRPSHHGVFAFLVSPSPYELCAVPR
ASSAY ENDPOINT: activity at 1 µM

[
  {
    "MOLECULE": "Cc1cc(OC[C@@H]2CCN2)on1",
    "ASSAY ENDPOINT": "activity at 1 µM",
    "ASSAY VALUE": "< 70%"
  }
]

----------
target: CYP2C9 (Homo sapiens); experiment: Inhibition of human liver microsome CYP2C9 using diclofenac as substrate assessed as residual activity at 10 uM; assay type: ADME; conditions: human liver microsomes, probe diclofenac, read-out: Activity
Sequence (P11712 whole entry): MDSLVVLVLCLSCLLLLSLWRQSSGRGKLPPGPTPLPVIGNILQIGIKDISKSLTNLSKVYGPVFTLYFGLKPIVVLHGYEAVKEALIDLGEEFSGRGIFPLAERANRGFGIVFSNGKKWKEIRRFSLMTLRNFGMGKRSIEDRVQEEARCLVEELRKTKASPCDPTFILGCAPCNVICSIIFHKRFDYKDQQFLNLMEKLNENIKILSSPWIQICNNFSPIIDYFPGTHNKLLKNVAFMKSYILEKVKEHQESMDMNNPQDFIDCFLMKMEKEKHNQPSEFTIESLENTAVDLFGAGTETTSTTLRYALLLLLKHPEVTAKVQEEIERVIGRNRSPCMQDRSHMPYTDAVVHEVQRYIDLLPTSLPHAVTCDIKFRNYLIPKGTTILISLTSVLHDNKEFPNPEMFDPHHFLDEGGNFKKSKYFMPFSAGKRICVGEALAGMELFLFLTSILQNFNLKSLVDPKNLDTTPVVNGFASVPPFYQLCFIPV
ASSAY ENDPOINT: activity at 10 µM

[
  {
    "MOLECULE": "Cc1cc(OC[C@@H]2CCN2)on1",
    "ASSAY TARGET": "CYP2C9 (Homo sapiens)",
    "ASSAY ENDPOINT": "activity at 10 µM",
    "ASSAY VALUE": "< 70%"
  }
]

----------
biological target: Neuronal acetylcholine receptor; alpha3/beta4 (Rattus norvegicus, UniProt P04757+P12392); assay: Displacement of [3H]epibatidine from rat alpha3beta4 nACHR; assay type: protein-complex assay
Sequence (P04757 whole entry): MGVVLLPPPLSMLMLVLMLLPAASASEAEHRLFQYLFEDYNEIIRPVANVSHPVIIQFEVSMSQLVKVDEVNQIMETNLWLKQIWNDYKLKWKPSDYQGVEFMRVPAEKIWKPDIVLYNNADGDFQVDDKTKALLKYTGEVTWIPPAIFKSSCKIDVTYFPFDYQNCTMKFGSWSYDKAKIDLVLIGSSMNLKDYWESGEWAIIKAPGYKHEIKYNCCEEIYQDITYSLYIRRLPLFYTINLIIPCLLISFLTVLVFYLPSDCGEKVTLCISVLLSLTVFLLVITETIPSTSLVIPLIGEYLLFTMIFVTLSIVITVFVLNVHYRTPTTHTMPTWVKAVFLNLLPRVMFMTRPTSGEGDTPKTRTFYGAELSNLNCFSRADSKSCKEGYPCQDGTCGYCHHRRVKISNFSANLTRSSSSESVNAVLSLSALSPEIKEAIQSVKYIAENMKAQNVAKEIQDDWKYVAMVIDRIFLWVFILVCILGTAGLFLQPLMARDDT
Sequence (P12392 whole entry): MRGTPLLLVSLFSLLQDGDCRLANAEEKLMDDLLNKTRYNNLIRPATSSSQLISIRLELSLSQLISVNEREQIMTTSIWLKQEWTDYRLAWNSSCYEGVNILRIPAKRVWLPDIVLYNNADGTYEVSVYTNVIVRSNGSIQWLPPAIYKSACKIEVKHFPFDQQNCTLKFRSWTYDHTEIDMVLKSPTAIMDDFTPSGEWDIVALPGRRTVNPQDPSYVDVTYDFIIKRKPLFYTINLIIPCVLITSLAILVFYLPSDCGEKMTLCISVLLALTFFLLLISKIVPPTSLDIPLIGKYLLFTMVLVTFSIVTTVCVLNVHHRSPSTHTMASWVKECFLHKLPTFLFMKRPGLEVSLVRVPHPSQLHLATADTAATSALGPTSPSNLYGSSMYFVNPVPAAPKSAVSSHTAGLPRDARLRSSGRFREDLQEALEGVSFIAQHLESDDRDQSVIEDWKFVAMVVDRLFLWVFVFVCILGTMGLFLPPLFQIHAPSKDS
pKi: −log10 of the molar value.

[
  {
    "MOLECULE": "c1cnc2cc3c(cc2n1)[C@@H]1CNC[C@H]3C1",
    "pKi": 7.07
  }
]

----------
experiment: Plasma protein binding in human at 0.1 to 10 uM by equilibrium dialysis; type: ADME, cell-free; conditions: read-out: PPB (converted)
ASSAY ENDPOINT: fraction unbound at up to 10 µM

[
  {
    "MOLECULE": "Cc1cc(OC[C@@H]2CCN2)on1",
    "ASSAY ENDPOINT": "fraction unbound at up to 10 µM",
    "ASSAY VALUE": 0.918
  }
]

----------
molecular target: Neuronal acetylcholine receptor; alpha3/beta2 (Rattus norvegicus, UniProt P04757+P12390); assay: Displacement of [3H]epibatidine from rat alpha3beta2 nACHR
Sequence (P04757 whole entry): as the sequence (P04757 whole entry) above
Sequence (P12390 whole entry): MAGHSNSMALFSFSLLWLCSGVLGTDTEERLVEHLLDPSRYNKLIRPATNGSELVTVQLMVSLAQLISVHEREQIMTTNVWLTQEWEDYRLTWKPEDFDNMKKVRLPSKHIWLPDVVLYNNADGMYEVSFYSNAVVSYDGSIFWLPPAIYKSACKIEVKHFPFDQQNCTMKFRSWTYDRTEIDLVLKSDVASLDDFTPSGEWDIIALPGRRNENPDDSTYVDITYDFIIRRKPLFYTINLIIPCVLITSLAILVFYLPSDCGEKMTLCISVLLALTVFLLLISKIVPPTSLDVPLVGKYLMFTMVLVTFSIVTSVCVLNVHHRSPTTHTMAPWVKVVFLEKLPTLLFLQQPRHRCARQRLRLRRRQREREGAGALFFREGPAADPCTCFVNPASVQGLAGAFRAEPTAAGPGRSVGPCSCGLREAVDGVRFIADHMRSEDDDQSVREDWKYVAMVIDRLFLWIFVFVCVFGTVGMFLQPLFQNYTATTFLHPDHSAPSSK
ASSAY ENDPOINT: Ki (nM)

[
  {
    "MOLECULE": "Cc1cc(OC[C@@H]2CCN2)on1",
    "ASSAY VALUE": 8.7
  }
]

----------
target: CYP3A4 (Homo sapiens, UniProt P08684); assay: Inhibition of human liver microsome CYP3A4 using testosterone as substrate assessed as residual activity at 10 uM; format: ADME; settings: human liver microsomes, probe testosterone, read-out: Activity
Sequence (P08684 whole entry): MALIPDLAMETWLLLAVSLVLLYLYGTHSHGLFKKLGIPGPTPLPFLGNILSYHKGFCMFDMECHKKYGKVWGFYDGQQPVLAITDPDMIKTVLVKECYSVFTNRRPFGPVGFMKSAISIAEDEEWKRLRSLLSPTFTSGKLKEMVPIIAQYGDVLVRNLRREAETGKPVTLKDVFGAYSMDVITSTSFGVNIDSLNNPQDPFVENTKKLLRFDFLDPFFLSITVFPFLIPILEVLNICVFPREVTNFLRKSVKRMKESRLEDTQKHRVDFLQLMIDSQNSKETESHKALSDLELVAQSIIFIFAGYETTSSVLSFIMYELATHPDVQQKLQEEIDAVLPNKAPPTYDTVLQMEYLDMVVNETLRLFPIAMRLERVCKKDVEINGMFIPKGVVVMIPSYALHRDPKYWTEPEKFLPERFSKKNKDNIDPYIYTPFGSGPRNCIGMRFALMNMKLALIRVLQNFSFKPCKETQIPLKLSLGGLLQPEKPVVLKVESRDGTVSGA

[
  {
    "MOLECULE": "Cc1cc(OC[C@@H]2CCN2)on1",
    "activity at 10 µM": "< 70%"
  }
]

----------
As shown below, each of these compounds has a reported pKi value.
molecular target: Neuronal acetylcholine receptor subunit alpha-7 (Rattus norvegicus); assay: Binding affinity to rat alpha7 nACHR […]
Sequence (Q05941 whole entry): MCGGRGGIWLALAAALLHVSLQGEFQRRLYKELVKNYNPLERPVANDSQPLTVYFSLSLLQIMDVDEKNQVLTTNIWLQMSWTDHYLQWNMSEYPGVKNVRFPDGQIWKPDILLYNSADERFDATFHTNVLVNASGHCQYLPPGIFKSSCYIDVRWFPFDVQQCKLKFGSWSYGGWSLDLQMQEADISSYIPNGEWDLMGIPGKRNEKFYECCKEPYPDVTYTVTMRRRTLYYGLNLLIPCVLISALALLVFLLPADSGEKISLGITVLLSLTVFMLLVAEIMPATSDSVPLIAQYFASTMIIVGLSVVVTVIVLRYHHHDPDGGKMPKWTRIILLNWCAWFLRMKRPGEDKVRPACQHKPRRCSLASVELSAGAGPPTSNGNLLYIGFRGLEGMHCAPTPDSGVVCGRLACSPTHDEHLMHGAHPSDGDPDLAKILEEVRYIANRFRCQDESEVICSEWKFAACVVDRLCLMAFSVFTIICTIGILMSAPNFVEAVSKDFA
pKi: −log10 of the molar value.
ASSAY ENDPOINT: pKi

[
  {
    "MOLECULE": "Cc1cc(OC[C@@H]2CCN2)on1",
    "ASSAY VALUE": 5.54
  },
  {
    "MOLECULE": "c1cnc2cc3c(cc2n1)[C@@H]1CNC[C@H]3C1",
    "ASSAY VALUE": 6.90
  }
]
